pIC50 values by entry
# Target under test: Transcription initiation factor TFIID subunit 1 (Homo sapiens)
# Assay notes: Inhibition of recombinant human N-terminal His6-FLAG-tagged TAF1 bromodomain 2 (unknown origin) expressed in Rosetta2 (DE3) pLysS cells after 60 mins by TR-FRET assay
Lab note — pIC50 values are minus log10 of concentrations in M.

Example entries and their recorded answers appear below.
{"Compound": "C=CCn1cc(C(=O)N(C)C2CCN(c3cc(C(C)(C)C)ncn3)CC2)c2cc[nH]c2c1=O", "pIC50": 5.55}
{"Compound": "C=CCn1cc(C(=O)N(C)C2CCN(c3cc(OC)nc(C)n3)CC2)c2cc[nH]c2c1=O", "pIC50": 5.57}
{"Compound": "CN1CCC(NC(=O)c2cn(C)c(=O)c3[nH]ccc23)CC1", "pIC50": 6.89}
{"Compound": "C=CCn1cc(C(=O)N(C)C2CCN([C@@H](C)c3ccccc3)CC2)c2cc(C)[nH]c2c1=O", "pIC50": 4.92}
{"Compound": "C=CCn1cc(C(=O)N(C)C2CCN(c3cc(C)nc(C)n3)CC2)c2cc[nH]c2c1=O", "pIC50": 5.29}

Query pIC50 on Transcription initiation factor TFIID subunit 1 (Homo sapiens) for C=CCn1cc(C(=O)N(C)C2CCN(C(C)c3ccccc3)CC2)c2cc[nH]c2c1=O (racemic)
4.79

// fetch Transcription initiation factor TFIID subunit 1 (Homo sapiens) pIC50 for C=CCn1cc(C(=O)N(C)C2CCN(c3cc(-c4ccccc4C)ncn3)CC2)c2cc[nH]c2c1=O
5.62

Provide value of pIC50 for this record tested with Transcription initiation factor TFIID subunit 1 (Homo sapiens): C=CCn1cc(C(=O)N(C)C2CCN(c3cc(C4CC4)nc(C)n3)CC2)c2cc[nH]c2c1=O
5.48

API: value(readout= pIC50, system= Transcription initiation factor TFIID subunit 1 (Homo sapiens), query= CC(C)N1CCC(N(C)C(=O)c2cn(C)c(=O)c3[nH]ccc23)CC1 )
5.08

----------
# Target under test: Bromodomain-containing protein 7 (Homo sapiens)
# Sequence (Q9NPI1 whole entry): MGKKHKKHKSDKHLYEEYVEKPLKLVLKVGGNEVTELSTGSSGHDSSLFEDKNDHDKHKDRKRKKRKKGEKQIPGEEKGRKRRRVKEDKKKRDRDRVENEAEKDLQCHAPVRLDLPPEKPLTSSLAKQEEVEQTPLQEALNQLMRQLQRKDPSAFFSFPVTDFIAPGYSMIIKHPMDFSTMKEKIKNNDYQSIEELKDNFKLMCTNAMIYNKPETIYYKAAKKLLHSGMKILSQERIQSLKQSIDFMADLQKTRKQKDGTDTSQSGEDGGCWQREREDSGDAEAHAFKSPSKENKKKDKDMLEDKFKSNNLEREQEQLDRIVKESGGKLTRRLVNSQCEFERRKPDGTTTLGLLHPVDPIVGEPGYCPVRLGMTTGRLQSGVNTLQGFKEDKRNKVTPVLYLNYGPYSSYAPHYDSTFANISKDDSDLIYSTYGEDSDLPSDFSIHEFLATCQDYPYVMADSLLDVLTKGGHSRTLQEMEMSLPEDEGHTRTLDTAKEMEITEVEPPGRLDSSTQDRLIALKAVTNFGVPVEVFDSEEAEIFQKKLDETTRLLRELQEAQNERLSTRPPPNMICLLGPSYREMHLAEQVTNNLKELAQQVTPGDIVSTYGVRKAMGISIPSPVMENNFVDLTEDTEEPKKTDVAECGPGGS
# Assay notes: Binding affinity to human DNA-tagged BRD7 (125 to 254 residues) expressed in mammalian expression system by BROMOscan assay
Recorded endpoint: Kd (µM)
All answers are understood in µM, so give the number only.

What value of Kd has been reported for the following compound? C=CCn1cc(C(=O)N(C)C2CCN(c3cc(-c4cccc(OC)c4)ncn3)CC2)c2cc[nH]c2c1=O
1.1

----------
# Target under test: Bromodomain-containing protein 4 (Homo sapiens, UniProt O60885)
# Assay notes: Inhibition of recombinant human N-terminal His6-FLAG-tagged BRD4 bromodomain 1 expressed in Rosetta2 (DE3) pLysS cells after 60 mins by TR-FRET assay
# Format: cell-based
IC50 listing for selected compounds.

{"Compound": "C=CCn1cc(C(=O)N(C)C2CCN(c3ccncn3)CC2)c2cc[nH]c2c1=O", "Target under test": "Bromodomain-containing protein 4 (Homo sapiens, UniProt O60885)", "Recorded endpoint": "IC50", "Assay value": "> 20 µM"}
{"Compound": "C=CCn1cc(C(=O)N(C)C2CCN(c3cc(OC)ncn3)CC2)c2cc[nH]c2c1=O", "Target under test": "Bromodomain-containing protein 4 (Homo sapiens, UniProt O60885)", "Recorded endpoint": "IC50", "Assay value": "> 20 µM"}

Next:
Any idea what its IC50 is? The compound is C=CCn1cc(C(=O)N(C)C2CCN(C(C)c3ccccc3)CC2)c2cc[nH]c2c1=O (racemic)
> 20 µM

----------
# Target under test: Chromatin remodeling regulator CECR2 (Homo sapiens)
# Sequence (Q9BXF3 whole entry, the tested form may be a part): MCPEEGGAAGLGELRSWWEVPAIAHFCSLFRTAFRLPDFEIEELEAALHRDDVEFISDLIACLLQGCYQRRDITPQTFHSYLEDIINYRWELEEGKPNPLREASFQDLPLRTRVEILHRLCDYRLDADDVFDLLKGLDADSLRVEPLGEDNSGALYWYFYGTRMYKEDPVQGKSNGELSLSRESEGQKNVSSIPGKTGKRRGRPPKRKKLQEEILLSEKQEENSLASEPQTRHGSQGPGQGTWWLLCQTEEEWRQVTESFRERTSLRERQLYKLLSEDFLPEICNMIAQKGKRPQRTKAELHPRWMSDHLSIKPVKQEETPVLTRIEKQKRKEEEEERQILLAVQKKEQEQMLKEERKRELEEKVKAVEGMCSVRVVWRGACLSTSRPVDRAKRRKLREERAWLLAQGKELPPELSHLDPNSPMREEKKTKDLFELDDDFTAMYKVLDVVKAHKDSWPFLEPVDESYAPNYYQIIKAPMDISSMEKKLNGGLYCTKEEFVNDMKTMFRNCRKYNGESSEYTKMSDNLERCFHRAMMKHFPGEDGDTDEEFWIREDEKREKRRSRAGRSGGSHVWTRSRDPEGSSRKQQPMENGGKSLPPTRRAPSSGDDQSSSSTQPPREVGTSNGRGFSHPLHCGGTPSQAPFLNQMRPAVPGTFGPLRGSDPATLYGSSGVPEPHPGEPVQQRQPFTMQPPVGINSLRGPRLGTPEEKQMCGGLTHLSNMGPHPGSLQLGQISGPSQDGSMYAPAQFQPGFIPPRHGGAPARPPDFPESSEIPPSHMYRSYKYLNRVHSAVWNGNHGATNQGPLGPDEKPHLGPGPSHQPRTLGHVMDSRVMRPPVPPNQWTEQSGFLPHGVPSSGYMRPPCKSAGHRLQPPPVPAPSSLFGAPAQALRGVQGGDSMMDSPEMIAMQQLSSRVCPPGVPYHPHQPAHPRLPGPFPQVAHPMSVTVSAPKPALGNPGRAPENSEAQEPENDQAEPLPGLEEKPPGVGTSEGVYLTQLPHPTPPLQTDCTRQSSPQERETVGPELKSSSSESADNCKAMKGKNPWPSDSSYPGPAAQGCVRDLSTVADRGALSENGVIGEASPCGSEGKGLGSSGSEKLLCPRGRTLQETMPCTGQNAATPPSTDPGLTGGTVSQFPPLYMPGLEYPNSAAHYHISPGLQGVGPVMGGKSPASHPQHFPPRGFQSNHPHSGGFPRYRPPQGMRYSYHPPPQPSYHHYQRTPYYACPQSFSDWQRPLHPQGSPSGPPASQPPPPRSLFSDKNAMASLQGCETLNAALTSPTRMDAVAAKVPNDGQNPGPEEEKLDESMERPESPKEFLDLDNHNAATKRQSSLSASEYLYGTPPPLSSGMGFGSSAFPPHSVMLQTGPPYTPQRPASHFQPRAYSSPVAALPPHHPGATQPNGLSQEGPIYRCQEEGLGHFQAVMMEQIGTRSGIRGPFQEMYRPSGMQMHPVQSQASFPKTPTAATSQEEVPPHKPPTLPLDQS
# Assay notes: Binding affinity to ZsGreen fused-CECR2 bromodomain (M404 to H515 residues) (unknown origin) expressed in human U2OS-C433 cells co expressing (MDPKKKRKVDPKKRKVDPKKKRKV) assessed as induction of protein bromodomain localization from chromatin by measuring formation of large nuclear puncta by fluorescence based assay
Recorded endpoint: pEC50
Value format note: pEC50 is -log10 of concentration (mol/L); just state the number.

Need pEC50 of C=CCn1cc(C(=O)N(C)C2CCN(c3cc(-c4cccc(OC)c4)ncn3)CC2)c2cc[nH]c2c1=O , thanks.
6.43

----------
# Target under test: UniProt Q9BXF3
# Assay notes: Inhibition of recombinant human N-terminal His6-FLAG-tagged CECR2 expressed in Rosetta2 (DE3) pLysS cells after 60 mins by TR-FRET assay
Define the label as Condition met when IC50 is strictly less than 200 nM and as Condition not met in all remaining cases.

Problem: For the molecule C=CCn1cc(C(=O)N(C)C2CCN(c3cc(-c4cccc(OC)c4)ncn3)CC2)c2cc[nH]c2c1=O , is IC50 under 200 nM?
Condition met

Report whether reported IC50 is lower than 200 nM (strictly) for C=CCn1cc(C(=O)N(C)C2CCN([C@@H](C)c3ccccc3)CC2)c2cc(C)[nH]c2c1=O
Condition met

Strictly below 200 nM: is that where IC50 of C=CCn1cc(C(=O)N(C)C2CCN(c3cc(-c4ccccc4F)ncn3)CC2)c2cc[nH]c2c1=O sits?
Condition met

Item C=CCn1cc(C(=O)N(C)C2CCN(c3cc(C4CC4)ncn3)CC2)c2cc[nH]c2c1=O : IC50 beneath 200 nM, strictly?
Condition met

Please check: IC50 for C=CCn1cc(C(=O)N(C)C2CCN(c3cc(-c4ccccc4C)ncn3)CC2)c2cc[nH]c2c1=O , strictly under 200 nM or not?
Condition met

Lab note: confirm whether the reported IC50 for this molecule is below 200 nM, equality not counting. molecule: C=CCn1cc(C(=O)N(C)C2CCN(c3cc(C)nc(C)n3)CC2)c2cc[nH]c2c1=O
Condition met

Does the reported IC50 of C=CCn1cc(C(=O)N(C)C2CCN(C(C)c3ccccc3)CC2)c2cc[nH]c2c1=O (racemic) stay below 200 nM?
Condition not met

Find out if reported IC50 for CC(C)N1CCC(N(C)C(=O)c2cn(C)c(=O)c3[nH]ccc23)CC1 is less than 200 nM
Condition not met

----------
# Assay notes: Kinetic solubility of the compound
# Format: physicochemical
# Assay setup: read-out: Kinetic_solubility
Recorded endpoint: solubility kinetic

Consider the compound C=CCn1cc(C(=O)N(C)C2CCN(c3cc(-c4cccc(OC)c4)ncn3)CC2)c2cc[nH]c2c1=O and give its measured solubility kinetic.
122 µM

----------
# Target under test: Transcription initiation factor TFIID subunit 1 (Homo sapiens, UniProt P21675)
# Sequence (P21675 whole entry): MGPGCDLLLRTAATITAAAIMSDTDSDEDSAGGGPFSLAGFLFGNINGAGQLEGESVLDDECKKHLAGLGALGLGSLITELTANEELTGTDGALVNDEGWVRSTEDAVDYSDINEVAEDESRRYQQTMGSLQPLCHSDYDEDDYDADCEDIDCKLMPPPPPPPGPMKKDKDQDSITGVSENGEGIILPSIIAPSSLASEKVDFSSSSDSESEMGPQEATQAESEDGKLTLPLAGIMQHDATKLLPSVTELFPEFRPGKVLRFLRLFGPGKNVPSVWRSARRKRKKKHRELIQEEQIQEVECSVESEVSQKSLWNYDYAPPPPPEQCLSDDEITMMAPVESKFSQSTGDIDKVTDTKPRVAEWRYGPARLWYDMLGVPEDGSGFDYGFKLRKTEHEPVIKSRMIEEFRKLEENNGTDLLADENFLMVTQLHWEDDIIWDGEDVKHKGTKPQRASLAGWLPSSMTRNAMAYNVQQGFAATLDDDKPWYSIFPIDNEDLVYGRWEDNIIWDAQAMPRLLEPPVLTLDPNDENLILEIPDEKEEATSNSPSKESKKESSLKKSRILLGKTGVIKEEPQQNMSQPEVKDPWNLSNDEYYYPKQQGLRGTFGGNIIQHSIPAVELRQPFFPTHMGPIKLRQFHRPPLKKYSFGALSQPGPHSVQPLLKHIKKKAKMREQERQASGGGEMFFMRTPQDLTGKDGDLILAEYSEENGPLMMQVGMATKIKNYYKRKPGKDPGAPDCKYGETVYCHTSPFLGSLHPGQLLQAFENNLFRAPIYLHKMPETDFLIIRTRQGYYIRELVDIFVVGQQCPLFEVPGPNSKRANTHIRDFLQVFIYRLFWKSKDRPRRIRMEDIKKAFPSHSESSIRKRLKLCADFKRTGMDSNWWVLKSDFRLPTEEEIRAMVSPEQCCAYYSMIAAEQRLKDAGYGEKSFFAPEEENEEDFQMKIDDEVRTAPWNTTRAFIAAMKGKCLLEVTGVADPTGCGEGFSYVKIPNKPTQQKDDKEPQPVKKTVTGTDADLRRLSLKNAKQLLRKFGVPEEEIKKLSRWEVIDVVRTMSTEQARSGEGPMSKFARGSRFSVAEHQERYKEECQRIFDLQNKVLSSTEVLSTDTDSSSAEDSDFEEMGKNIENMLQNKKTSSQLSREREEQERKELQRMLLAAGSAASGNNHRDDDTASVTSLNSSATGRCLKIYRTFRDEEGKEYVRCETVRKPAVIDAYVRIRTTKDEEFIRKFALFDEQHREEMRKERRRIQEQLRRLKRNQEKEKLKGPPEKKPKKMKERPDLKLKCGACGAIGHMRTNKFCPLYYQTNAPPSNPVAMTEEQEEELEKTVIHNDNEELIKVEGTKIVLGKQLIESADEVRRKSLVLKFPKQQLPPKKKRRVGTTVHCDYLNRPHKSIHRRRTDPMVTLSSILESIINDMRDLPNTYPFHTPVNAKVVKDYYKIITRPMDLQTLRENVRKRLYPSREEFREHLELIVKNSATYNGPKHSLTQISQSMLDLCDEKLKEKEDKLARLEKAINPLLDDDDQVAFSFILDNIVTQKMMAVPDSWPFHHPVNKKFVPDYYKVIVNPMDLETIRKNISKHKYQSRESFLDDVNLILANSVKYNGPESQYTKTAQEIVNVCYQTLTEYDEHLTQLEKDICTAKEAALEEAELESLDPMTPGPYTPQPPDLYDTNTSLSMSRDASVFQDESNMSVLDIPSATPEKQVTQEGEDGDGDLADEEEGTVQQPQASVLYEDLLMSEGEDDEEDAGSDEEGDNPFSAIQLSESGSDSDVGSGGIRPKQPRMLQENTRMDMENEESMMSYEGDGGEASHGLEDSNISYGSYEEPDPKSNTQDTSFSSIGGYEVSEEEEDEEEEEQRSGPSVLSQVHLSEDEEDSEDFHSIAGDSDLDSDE
# Assay notes: Inhibition of recombinant human N-terminal His6-FLAG-tagged TAF1 bromodomain 2 (unknown origin) expressed in Rosetta2 (DE3) pLysS cells after 60 mins by TR-FRET assay
The compounds listed here are annotated with their pIC50.
In plain terms, pIC50 is the concentration in mol/L turned into minus its base-10 logarithm.

Example entries and their recorded answers appear below.
{"Compound structure": "C=CCn1cc(C(=O)N(C)C2CCN(c3cc(-c4ccccc4OC)ncn3)CC2)c2cc[nH]c2c1=O", "pIC50": 5.59}
{"Compound structure": "C=CCn1cc(C(=O)N(C)C2CCN(c3cc(C(F)(F)F)ncn3)CC2)c2cc[nH]c2c1=O", "pIC50": 5.47}
{"Compound structure": "C=CCn1cc(C(=O)N(C)C2CCN(c3ccncn3)CC2)c2cc[nH]c2c1=O", "pIC50": 5.68}
{"Compound structure": "C=CCn1cc(C(=O)N(C)C2CCN([C@H](C)c3ccccc3)CC2)c2cc(C)[nH]c2c1=O", "pIC50": 4.78}
{"Compound structure": "C=CCn1cc(C(=O)N(C)C2CCN(c3cc(-n4cccn4)ncn3)CC2)c2cc[nH]c2c1=O", "pIC50": 5.47}

From here, focus on the item given below.
Consider the compound shown here: C=CCn1cc(C(=O)N(C)C2CCN(c3cc(-c4cccc(OC)c4)ncn3)CC2)c2cc[nH]c2c1=O What is its recorded pIC50?
5.85
